# reported Kd; entries follow
- measurement target: T1, human CD8A-Fc (recombinant human CD8 alpha fused to Fc fragment of human IgG1) (human, UniProt P01732 22-182, limits assumed)
- T1 construct: SPR ligand, captured by goat anti-human Fc; also called hCD8A-Fc; recombinant CD8 alpha; not shown: linker with flag (and polyhistidine) tag and Fc fragment of human IgG1; depends on which of the two constructs was used
- T1 sequence (P01732 22-182 limits assumed): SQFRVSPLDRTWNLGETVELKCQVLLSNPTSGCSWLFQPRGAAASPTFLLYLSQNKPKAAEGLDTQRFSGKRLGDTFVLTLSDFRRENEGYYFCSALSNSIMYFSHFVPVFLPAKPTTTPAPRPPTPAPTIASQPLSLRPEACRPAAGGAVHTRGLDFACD
- test name: SPR (ProteOn), captured hCD8A-Fc, heterogeneous ligand fit, higher affinity population
recorded metric: Kd

binder | assay result
P282DR9P1359_F7 (designed binder, FN3 domain (Centyrin); purified as His-tagged protein, tag not in the entry) LPAPKNLVVSRVTEDSARLSWTAPDAAFDSFAIAYPEWPPQGEAIVLTVPGSERSYDLTGLKPGTEYFVVIYGVKGGSYSAPLSAIFTT | 0.5 nM
P282DR9P1359_G7 (designed binder, FN3 domain (Centyrin); purified as His-tagged protein, tag not in the entry) LPAPKNLVVSRVTEDSARLSWTAPDAAFDSFAITYIEKEHIEDGEAIVLTVPGSERSYDLTGLKPGTEYWVPIWGVKGGANSWPLSAIFTT | 0.05 nM
